# measuredTarget: IDO1 (Homo sapiens, UniProt P14902)
# Sequence (P14902 whole entry): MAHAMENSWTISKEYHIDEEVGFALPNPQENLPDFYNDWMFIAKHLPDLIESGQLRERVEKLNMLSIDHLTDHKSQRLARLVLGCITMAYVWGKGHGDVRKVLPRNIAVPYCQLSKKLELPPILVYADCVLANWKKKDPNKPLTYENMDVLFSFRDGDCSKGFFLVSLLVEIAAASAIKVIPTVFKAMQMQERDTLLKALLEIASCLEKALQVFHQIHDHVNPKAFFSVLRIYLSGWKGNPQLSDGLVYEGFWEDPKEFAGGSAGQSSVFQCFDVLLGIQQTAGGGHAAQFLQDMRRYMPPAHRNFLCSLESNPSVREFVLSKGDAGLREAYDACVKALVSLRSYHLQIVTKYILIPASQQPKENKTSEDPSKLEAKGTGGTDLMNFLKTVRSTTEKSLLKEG
# testProtocol: IDO1 Cellular Assay in HeLa Cells Stimulated with IFNγ
# Type: cell-based
# assaySetup: read-out: HeLa Cell Potency, IC50
pIC50: −log10 of the molar value.
Cut-off 8 on pIC50, inclusive. At or above means Condition met; below means Condition not met.

Prompt line: Threshold query (pIC50 >= 8) on Cc1cccc(N2CCN(C(=O)Cn3nc(C(=O)N4CCC(O)(C(F)F)CC4)c4c3CCC4)CC2)c1C
Response line: Condition met

Prompt line: Threshold query (pIC50 >= 8) on Cc1cccc(N2CCN(C(=O)Cn3nc(C(=O)N4CCN(C(=O)CO)CC4)c4c3CC3CC43)CC2)c1C (centres unmarked)
Response line: Condition met

Prompt line: Threshold query (pIC50 >= 8) on Cc1cccc(N2CCN(C(=O)Cn3nc(C(=O)N4C[C@@H](C)N[C@@H](C)C4)c4c3C[C@H]3C[C@@H]43)CC2)c1C
Response line: Condition met

Prompt line: Threshold query (pIC50 >= 8) on Cc1cccc(N2CCN(C(=O)Cn3nc(C(=O)N4CC[C@@H](O)C[C@H]4C)c4c3C[C@H]3C[C@@H]43)CC2)c1C
Response line: Condition met

Prompt line: Threshold query (pIC50 >= 8) on Cc1cccc(N2CCN(C(=O)Cn3nc(C(=O)N4CCCC(N5CCCC5)C4)c4c3CCC4)CC2)c1C (centres unmarked)
Response line: Condition not met

Prompt line: Threshold query (pIC50 >= 8) on Cc1c(Cl)cccc1N1CCN(C(=O)Cn2nc(C(=O)N3CCN(CCO)CC3)c3c2C[C@H]2C[C@@H]32)C2(CC2)C1
Response line: Condition met

Prompt line: Threshold query (pIC50 >= 8) on C[C@@H]1CN(C(=O)c2nn(CC(=O)N3CCN(c4cc(F)cc(F)c4F)CC3)c3c2CCC3)C[C@H](C)O1
Response line: Condition not met

Prompt line: Threshold query (pIC50 >= 8) on Cc1cccc(N2CCN(C(=O)Cn3nc(C(=O)N4CCC(NC(=O)CO)CC4)c4c3CCCC4)CC2)c1C
Response line: Condition met

Prompt line: Threshold query (pIC50 >= 8) on C[C@@H]1CN(C(=O)c2nn(CC(=O)N3CCN(c4cccc(F)c4F)CC3)c3c2CCC3)C[C@H](C)O1
Response line: Condition not met

###

# measuredTarget: IDO1 (Homo sapiens)
# testProtocol: IDO1 Cellular Assay in HeLa Cells Stimulated with IFNγ
# Format: cell-based
# assaySetup: read-out: HeLa Cell Potency, IC50
Task for the reader: assign each of the following molecules its reported log10 of IC50.
On a log10 scale: recorded IC50, unit nM.

Prompt line: Please state recorded log10 of IC50 (tested on IDO1 (Homo sapiens)) of COc1cccc(N2CCN(C(=O)Cn3nc(C(=O)N4C[C@@H](C)O[C@@H](C)C4)c4c3CCC4)CC2)c1F [Example 39]
Response line: 2.57

Prompt line: Please state recorded log10 of IC50 (tested on IDO1 (Homo sapiens)) of Cc1cccc(N2CCN(C(=O)Cn3nc(C(=O)N4CC[C@H](O)[C@H](F)C4)c4c3CCCCC4)CC2)c1C [Example 412]
Response line: 0.73

Prompt line: Please state recorded log10 of IC50 (tested on IDO1 (Homo sapiens)) of O=C(Cn1nc(C(=O)N2CCC(O)CC2)c2c1CCC2)N1CCN(C2CCCc3ccccc32)CC1 (single isomer, unassigned) [Example 431]
Response line: 3.54

Prompt line: Please state recorded log10 of IC50 (tested on IDO1 (Homo sapiens)) of Cc1cccc(N2CCN(C(=O)Cn3nc(C(=O)N4CCC(NC(N)=O)CC4)c4c3CCC4)CC2)c1C [Example 188]
Response line: 0.99

Prompt line: Please state recorded log10 of IC50 (tested on IDO1 (Homo sapiens)) of Cc1cccc(N2CCN(C(=O)Cn3nc(C(=O)N4CCN(C(=O)CO)C[C@@H]4C)c4c3CCC4)CC2)c1C [Example 401]
Response line: 1.11

Prompt line: Please state recorded log10 of IC50 (tested on IDO1 (Homo sapiens)) of CNC(=O)C1CCN(C(=O)c2nn(CC(=O)N3CCN(c4cccc(C)c4C)CC3)c3c2[C@@H]2C[C@@H]2C3)CC1 [Example 254]
Response line: 0.23

###

Task for the reader: assign each of the following molecules its reported IC50.
# measuredTarget: IDO1 (Homo sapiens, UniProt P14902)
# testProtocol: IDO1 Cellular Assay in HeLa Cells Stimulated with IFNγ
# Assay type: cell-based
# assaySetup: read-out: HeLa Cell Potency, IC50
Units required after the number.

Prompt line: # query: IC50 of entry Cc1cccc(N2CCN(C(=O)Cn3nc(C(=O)N4CCC(O)CC4(C)C)c4c3C[C@H]3C[C@@H]43)CC2)c1C (stereo partly shown)
Response line: 7.25 nM

Prompt line: # query: IC50 of entry COc1cc(F)c(N2CCN(C(=O)Cn3nc(C(=O)N4C[C@@H](C)O[C@@H](C)C4)c4c3CCC4)CC2)cc1F
Response line: 146 nM

Prompt line: # query: IC50 of entry Cc1cccc(N2CCN(C(=O)Cn3nc(C(=O)N4CCC(O)(CF)CC4)c4c3C[C@H]3C[C@@H]43)C(C)(C)C2)c1C
Response line: 70 nM

Prompt line: # query: IC50 of entry Cc1cccc(N2CCN(C(=O)Cn3nc(C(=O)N4CCCC5(C4)NC(=O)NC5=O)c4c3C[C@H]3C[C@@H]43)CC2)c1C (stereo partly shown)
Response line: 16.5 nM

Prompt line: # query: IC50 of entry Cc1cccc(N2CCN(C(=O)Cn3nc(C(=O)N4CCC(O)C(F)C4)c4c3CCCCC4)CC2)c1C (stereo not shown)
Response line: 8.74 nM

Prompt line: # query: IC50 of entry Cc1cccc(N2CCN(C(=O)Cn3nc(C(=O)N4CCO[C@@H](CO)C4)c4c3CCCC4)CC2)c1C
Response line: 2.62 nM

Prompt line: # query: IC50 of entry Cc1cccc(N2CCN(C(=O)Cn3nc(C(=O)N4CC[C@@H](O)C(F)(F)C4)c4c3CCC4)CC2)c1C (single isomer, unassigned)
Response line: 5.91 nM

Prompt line: # query: IC50 of entry Cc1cccc(N2CCN(C(=O)Cn3nc(C(=O)N4CCC(OCCO)CC4)c4c3CCCC4)CC2)c1C
Response line: 1.37 nM

Prompt line: # query: IC50 of entry Cc1cccc(N2CCN(C(=O)Cn3nc(C(=O)N4CCC(O)C(F)(F)C4)c4c3CCC4)CC2)c1C (stereo not shown) [Example 205]
Response line: 17.1 nM

Prompt line: # query: IC50 of entry C[C@@H]1CN(C(=O)c2nn(CC(=O)N3CCN(c4ccc(C(F)(F)F)cc4)CC3)c3c2CCC3)C[C@H](C)O1
Response line: 173 nM

###

# measuredTarget: IDO1 (Homo sapiens)
# testProtocol: IDO1 Human Whole blood Assay
# Type: cell-based
# Set-up: Human whole blood was drawn in sodium heparin coated tubes from healthy internal donors; from tissue; host or cells: human whole blood from healthy donors, stimulated with LPS and IFNγ
# assaySetup: LPS and IFNγ stimulated, 18 h, read-out: Human Whole Blood Potency, IC50
Note to self: IC50 under 800 nM means TRUE, ties and anything higher get FALSE.

Prompt line: API: query returns whether the compound falls strictly under 800 nM in IC50. Query: Cc1cccc(N2CCN(C(=O)Cn3nc(C(=O)N4CCC(O)(CO)CC4)c4c3CCC4)CC2)c1C
Response line: TRUE

Prompt line: API: query returns whether the compound falls strictly under 800 nM in IC50. Query: Cc1cccc(N2CCN(C(=O)Cn3nc(C(=O)N4CCC(O)C(F)C4)c4c3CCC4)C3(CC3)C2)c1C (single isomer, unassigned) [Example 330]
Response line: FALSE

Prompt line: API: query returns whether the compound falls strictly under 800 nM in IC50. Query: Cc1cccc(N2CCN(C(=O)Cn3nc(C(=O)N4CCC(O)(CN)CC4)c4c3C[C@H]3C[C@@H]43)CC2)c1C
Response line: FALSE

Prompt line: API: query returns whether the compound falls strictly under 800 nM in IC50. Query: Cc1c(Cl)cccc1N1CCN(C(=O)Cn2nc(C(=O)N3CCC(O)CC3)c3c2CCC(F)C3)CC1 (centres unmarked)
Response line: TRUE

Prompt line: API: query returns whether the compound falls strictly under 800 nM in IC50. Query: Cc1cccc(N2CCN(C(=O)Cn3nc(C(=O)N4CCN(C(=O)CO)CC4)c4c3C[C@H]3C[C@@H]43)C3(CC3)C2)c1C
Response line: FALSE

###

# measuredTarget: IDO1 (Homo sapiens)
# testProtocol: IDO1 Human Whole blood Assay
# Format: cell-based
# Set-up: Human whole blood was drawn in sodium heparin coated tubes from healthy internal donors; from tissue; host or cells: human whole blood from healthy donors, stimulated with LPS and IFNγ
# assaySetup: LPS and IFNγ stimulated, 18 h, read-out: Human Whole Blood Potency, IC50
Task for the reader: assign each of the following molecules its reported pIC50.
For clarity, pIC50 is expressed as the negative log10 of concentration in mol/L.

Prompt line: # query: pIC50 of entry Cc1cccc(N2CCN(C(=O)Cn3nc(C(=O)N4CCC(O)C(F)C4)c4c3CCC4)C3(CC3)C2)c1C (single isomer, unassigned) [Example 394]
Response line: 6.04

Prompt line: # query: pIC50 of entry Cc1cccc(N2CCN(C(=O)Cn3nc(C(=O)N4CCN(CC(F)F)CC4)c4c3CCC4)CC2)c1C
Response line: 6.71

Prompt line: # query: pIC50 of entry Cc1c(Cl)cccc1N1CCN(C(=O)Cn2nc(C(=O)N3CCC(F)(CN)CC3)c3c2C[C@H]2C[C@@H]32)C2(CC2)C1
Response line: 6.07

Prompt line: # query: pIC50 of entry CC(=O)NC1CCN(C(=O)c2nn(CC(=O)N3CCN(c4cccc(C)c4C)CC3)c3c2CCCC3)CC1
Response line: 7.19

Prompt line: # query: pIC50 of entry Cc1cccc(N2CCN(C(=O)Cn3nc(C(=O)N4CCC(OCCO)CC4)c4c3CCCC4)CC2)c1C
Response line: 7.43

Prompt line: # query: pIC50 of entry Cc1c(Cl)cccc1N1CCN(C(=O)Cn2nc(C(=O)N3C[C@@H](C)O[C@@H](C)C3)c3c2CCC3)CC1
Response line: 6.00

Prompt line: # query: pIC50 of entry Cc1cccc(N2CCN(C(=O)Cn3nc(C(=O)N4CCCC4)c4c3CCCCC4)CC2)c1C
Response line: 6.38

Prompt line: # query: pIC50 of entry Cc1cccc(N2CCN(C(=O)Cn3nc(C(=O)N4C[C@@H](C)O[C@@H](C)C4)c4c3CCC4)C3(CC3)C2)c1C
Response line: 6.00

Prompt line: # query: pIC50 of entry CC(=O)NC1CCN(C(=O)c2nn(CC(=O)N3CCN(c4cccc(Cl)c4C)CC3)c3c2CC(F)(F)CC3)CC1
Response line: 7.03

Prompt line: # query: pIC50 of entry Cc1cccc(N2CCN(C(=O)Cn3nc(C(=O)N4CC[C@H](O)[C@H](C)C4)c4c3C[C@H]3C[C@@H]43)CC2)c1C
Response line: 6.90

Prompt line: # query: pIC50 of entry Cc1c(Cl)cccc1N1CCN(C(=O)Cn2nc(C(=O)N3CC[C@@H](O)[C@@H](F)C3)c3c2CCCC3)CC1
Response line: 6.51

Prompt line: # query: pIC50 of entry Cc1cccc(N2CCN(C(=O)Cn3nc(C(=O)N4CCN(S(C)(=O)=O)CC4)c4c3CCC4)CC2)c1C
Response line: 6.90

Prompt line: # query: pIC50 of entry Cc1c(F)ccc(N2CCN(C(=O)Cn3nc(C(=O)N4C[C@@H](C)O[C@@H](C)C4)c4c3CCC4)CC2)c1C
Response line: 6.31

Prompt line: # query: pIC50 of entry Cc1c(F)ccc(N2CCN(C(=O)Cn3nc(C(=O)N4CCC(O)CC4)c4c3CCCC4)CC2)c1C
Response line: 7.44

Prompt line: # query: pIC50 of entry Cc1cccc(N2CCN(C(=O)Cn3nc(C(=O)N4CCC(N5CCNC5=O)CC4)c4c3CCC4)CC2)c1C
Response line: 6.76

Prompt line: # query: pIC50 of entry Cc1cccc(N2CCN(C(=O)Cn3nc(C(=O)N4CCC(O)C(F)C4)c4c3CCC4)C3(CC3)C2)c1C (single isomer, unassigned) [Example 329]
Response line: 6.04

Prompt line: # query: pIC50 of entry Cc1cccc(N2CCN(C(=O)Cn3nc(C(=O)N4CC[C@@H](O)[C@@H](C)C4)c4c3C[C@H]3C[C@@H]43)CC2)c1C
Response line: 6.53

Prompt line: # query: pIC50 of entry Cc1cccc(N2CCN(C(=O)Cn3nc(C(=O)N4C[C@@H](C)O[C@@H](C)C4)c4c3[C@H]3C[C@H]3C4)CC2)c1C
Response line: 5.84

Prompt line: # query: pIC50 of entry Cc1c(Cl)cccc1N1CCN(C(=O)Cn2nc(C(=O)N3CCN(C(=O)CO)CC3)c3c2CCCC3)CC1
Response line: 6.74

Prompt line: # query: pIC50 of entry Cc1cccc(N2CCN(C(=O)Cn3nc(C(=O)N4CCC(O)C(F)C4)c4c3CCC4)C3(CC3)C2)c1C (single isomer, unassigned) [Example 393]
Response line: 6.01

Prompt line: # query: pIC50 of entry Cc1cccc(N2CCN(C(=O)Cn3nc(C(=O)N4CCC(O)(C(F)F)CC4)c4c3CCC4)CC2)c1C
Response line: 6.71
